pKd: recorded values
- system: NHERF4_1, Q86UT5-2
- Sequence (Q86UT5 other isoform, or with tags, fused parts or gaps): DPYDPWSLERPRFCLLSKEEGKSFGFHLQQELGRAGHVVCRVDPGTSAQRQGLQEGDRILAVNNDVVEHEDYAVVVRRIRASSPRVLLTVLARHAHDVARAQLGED
- assayRemarks: holdup assay
- Design: key: below the threshold = too weak to quantify, mostly under pKd 3.1 to 4
- conditionNotes: plain residues with an end cap or a label only (N-terminal biotin on a linker: ado-ado)
experimentalEndpoint: pKd

1) NLSIEKETKL [ASNSD1, Q9NWL6] ... 3.87
2) EALLQMESVA [CAVIN3, Q969G5] ... 3.59
3) LRSPRTPSEV [OR10G3, Q8NGC4] ... 3.63
4) YRLAQESGLV [ABCC6, O95255] ... 3.51
5) DDPSTAETVL [ABCA7, Q8IZY2] ... 3.86
6) TSQESEDTYL [TBC1D10A, Q9BXI6] ... 3.97
7) VRNLPESEEL [MYOZ3, Q8TDC0] ... 4.3
8) PAPSSGKDYV [CLDN1, O95832] ... 3.62
9) LPAHHNATRL [SLC34A1, Q06495;Q06495-1] ... 4.01
10) LPHGHSTTRV [NLGN4X, Q8N0W4] ... 3.76
11) TASPAKETSF [SLC2A7, Q6PXP3] ... 4
12) GNSVLKSTQF [SLC22A12, Q96S37] ... 4.1
13) PLSPEQPTKL [TRIM50, Q86XT4] ... 3.98
14) RRISSLESEV [GRIN2C, Q14957] ... 3.71
15) CLREWCDAFL [BANF1, O75531] ... 4.13
16) QGPVETESVV [SLC45A4, Q5BKX6] ... 3.48
17) AKPSRISTVV [IQSEC2, Q5JU85] ... 3.48
18) YYKRPVQEWV [MMP24, Q9Y5R2] ... 3.47
19) HLRARKSEWV [GJD4, Q96KN9] ... 4.06
20) SSALYGESDL [ACTN2, P35609] ... 3.88

// data source = paper PMC9482650
